condition_summary: in acetonitrile, 293.15 K
test_readout: solubility (mole fraction)

Ask | Consider the compound CC1=NN(c2ccccc2)C(=O)C1 and give its measured solubility (mole fraction).
Reply | 0.0126

---

condition_summary: in methanol, 323.15 K
test_readout: solubility (mole fraction)
One number for each entry.

Ask | Consider the compound CC1=NN(c2ccccc2)C(=O)C1 and give its measured solubility (mole fraction).
Reply | 0.0833

---

condition_summary: in n-propanol, 293.15 K
test_readout: solubility (mole fraction)
One number for each entry.

Ask | Consider the molecule CC1=NN(c2ccccc2)C(=O)C1 and give its measured solubility (mole fraction).
Reply | 0.025

---

condition_summary: in ethyl acetate, 313.15 K
test_readout: solubility (mole fraction)
Numbers only.

Ask | Consider the compound CC1=NN(c2ccccc2)C(=O)C1 and give its measured solubility (mole fraction).
Reply | 0.0335

---

condition_summary: in dichloromethane, 303.15 K
test_readout: solubility (mole fraction)
Answers are plain numbers.

Ask | Consider the compound CC1=NN(c2ccccc2)C(=O)C1 and give its measured solubility (mole fraction).
Reply | 0.0788

---

condition_summary: in isobutanol, 293.15 K
test_readout: solubility (mole fraction)

Ask | Consider the molecule CC1=NN(c2ccccc2)C(=O)C1 and give its measured solubility (mole fraction).
Reply | 0.0218

---

condition_summary: in acetonitrile, 303.15 K
test_readout: solubility (mole fraction)

Ask | Consider the molecule CC1=NN(c2ccccc2)C(=O)C1 and give its measured solubility (mole fraction).
Reply | 0.019

---

condition_summary: in n-pentanol, 283.15 K
test_readout: solubility (mole fraction)

Ask | Consider the compound CC1=NN(c2ccccc2)C(=O)C1 and give its measured solubility (mole fraction).
Reply | 0.0245

---

condition_summary: in methanol, 313.15 K
test_readout: solubility (mole fraction)
Answers are plain numbers.

Ask | Consider the compound CC1=NN(c2ccccc2)C(=O)C1 and give its measured solubility (mole fraction).
Reply | 0.0562

---

condition_summary: in n-butanol, 283.15 K
test_readout: solubility (mole fraction)
One number for each entry.

Ask | Consider the molecule CC1=NN(c2ccccc2)C(=O)C1 and give its measured solubility (mole fraction).
Reply | 0.0194

---

condition_summary: in isopropanol, 283.15 K
test_readout: solubility (mole fraction)
Give bare numbers.

Ask | Consider the molecule CC1=NN(c2ccccc2)C(=O)C1 and give its measured solubility (mole fraction).
Reply | 0.0135

---

condition_summary: in sec-butanol, 293.15 K
test_readout: solubility (mole fraction)

Ask | Consider the molecule CC1=NN(c2ccccc2)C(=O)C1 and give its measured solubility (mole fraction).
Reply | 0.0218

---

condition_summary: in sec-butanol, 303.15 K
test_readout: solubility (mole fraction)
Give bare numbers.

Ask | Consider the molecule CC1=NN(c2ccccc2)C(=O)C1 and give its measured solubility (mole fraction).
Reply | 0.0296

---

condition_summary: in isopropanol, 313.15 K
test_readout: solubility (mole fraction)
Answers are plain numbers.

Ask | Consider the molecule CC1=NN(c2ccccc2)C(=O)C1 and give its measured solubility (mole fraction).
Reply | 0.0356

---

condition_summary: in acetone, 323.15 K
test_readout: solubility (mole fraction)
Give bare numbers.

Ask | Consider the compound CC1=NN(c2ccccc2)C(=O)C1 and give its measured solubility (mole fraction).
Reply | 0.108

---

condition_summary: in dichloromethane, 293.15 K
test_readout: solubility (mole fraction)
Numbers only.

Ask | Consider the compound CC1=NN(c2ccccc2)C(=O)C1 and give its measured solubility (mole fraction).
Reply | 0.0582
